experiment: qHTS assay to identify small molecule agonists of the farnesoid-X-receptor (FXR) signaling pathway - cell viability counter screen (AID 743218); details: FXR-bla HEK293T viability, CellTiter-Glo luminescence, 16 h; series mostly up to 62.6 µM; note: nearly all actives have a fitted effect of over 45% in size
Inconclusive results are not listed. Calls of active or inactive are those of the source. Calls come from the whole dose curve; as a rule, active = well fitted cell-killing curve with a large enough effect in the repeat runs; inconclusive = weak or mixed curves, or effect the other way; inactive = no such curve, though single readings can be large or run the other way.
Outcomes: active, inactive

[[record]]
molecule = "CC(CCc1ccccc1)NCC(O)c1ccc(O)c(C(N)=O)c1 (stereo unspecified)"
discrete_label = "inactive"

[[record]]
molecule = "Clc1nnc(Cl)c2ccccc12"
discrete_label = "inactive"

[[record]]
molecule = "CCCCCCCC/C=C\\CCCCCCCCN"
discrete_label = "inactive"

[[record]]
molecule = "Fc1ccc(C(c2ccc(F)cc2)N2CCNCC2)cc1"
discrete_label = "active"

[[record]]
molecule = "CC(C)(c1cc(Br)c(OCC(Br)CBr)c(Br)c1)c1cc(Br)c(OCC(Br)CBr)c(Br)c1 (stereo unspecified)"
discrete_label = "inactive"

[[record]]
molecule = "CC(C)CCCCCOC(=O)CCS"
discrete_label = "inactive"

[[record]]
molecule = "Oc1cc(Cl)cc(Cl)c1Cl"
discrete_label = "inactive"

[[record]]
molecule = "CN1CCN2c3ccccc3Cc3ccccc3C2C1 (stereo unspecified)"
discrete_label = "inactive"

[[record]]
molecule = "CCC(C)[O-].CCC(C)[O-].CCOC(=O)/C=C(/C)[O-].[Al+3]"
discrete_label = "inactive"

[[record]]
molecule = "O=C1OC2(c3ccc(O)cc3Oc3cc(O)ccc32)c2ccc(N=C=S)cc21"
discrete_label = "inactive"

[[record]]
molecule = "C#CC1(O)CC[C@H]2[C@@H]3CCC4=CCCC[C@@H]4[C@H]3CC[C@@]21C (stereo partly specified)"
discrete_label = "active"

[[record]]
molecule = "Cc1nc(-c2ccc(Cl)cc2)oc1COC(C)(C)C(=O)O"
discrete_label = "inactive"

[[record]]
molecule = "C[Si](Cl)(c1ccccc1)c1ccccc1"
discrete_label = "inactive"

[[record]]
molecule = "Sc1nc2ccccc2s1"
discrete_label = "inactive"

[[record]]
molecule = "CC(C)=CCC1=C(O)c2ccccc2C(=O)C1=O"
discrete_label = "inactive"

[[record]]
molecule = "O=c1c(O)c(-c2ccc(O)cc2O)oc2cc(O)cc(O)c12"
discrete_label = "inactive"

[[record]]
molecule = "CC(C)OC(=O)C(O)(CC(=O)O)CC(=O)O"
discrete_label = "inactive"

[[record]]
molecule = "CNc1ccc([N+](=O)[O-])cc1"
discrete_label = "active"

[[record]]
molecule = "CC(C)(C)c1ccc(C(O)CCCN2CCC(C(O)(c3ccccc3)c3ccccc3)CC2)cc1 (stereo unspecified)"
discrete_label = "active"

[[record]]
molecule = "O=C(/C=C/c1ccc(O)c(O)c1)O[C@@H](C(=O)O)[C@@H](OC(=O)/C=C/c1ccc(O)c(O)c1)C(=O)O"
discrete_label = "inactive"

[[record]]
molecule = "C=CC(C)(CCC=C(C)C)OC=O (stereo unspecified)"
discrete_label = "inactive"

[[record]]
molecule = "Clc1ccnc(Cl)n1"
discrete_label = "inactive"

[[record]]
molecule = "OCC(F)(F)F"
discrete_label = "inactive"

[[record]]
molecule = "c1ccsc1"
discrete_label = "inactive"

[[record]]
molecule = "c1cnccn1"
discrete_label = "inactive"

[[record]]
molecule = "O=S(=O)(O)c1ccccc1/C=C/c1ccc(-c2ccc(/C=C/c3ccccc3S(=O)(=O)O)cc2)cc1"
discrete_label = "inactive"

